Biological target: HDAC1-CoREST (Homo sapiens)
Construct: We used HDAC complexes with the most components that could be stably expressed, with full-length proteins where feasible; made in house; host or cells: HEK293F
Sequence (Q13547 whole entry, other chains not shown): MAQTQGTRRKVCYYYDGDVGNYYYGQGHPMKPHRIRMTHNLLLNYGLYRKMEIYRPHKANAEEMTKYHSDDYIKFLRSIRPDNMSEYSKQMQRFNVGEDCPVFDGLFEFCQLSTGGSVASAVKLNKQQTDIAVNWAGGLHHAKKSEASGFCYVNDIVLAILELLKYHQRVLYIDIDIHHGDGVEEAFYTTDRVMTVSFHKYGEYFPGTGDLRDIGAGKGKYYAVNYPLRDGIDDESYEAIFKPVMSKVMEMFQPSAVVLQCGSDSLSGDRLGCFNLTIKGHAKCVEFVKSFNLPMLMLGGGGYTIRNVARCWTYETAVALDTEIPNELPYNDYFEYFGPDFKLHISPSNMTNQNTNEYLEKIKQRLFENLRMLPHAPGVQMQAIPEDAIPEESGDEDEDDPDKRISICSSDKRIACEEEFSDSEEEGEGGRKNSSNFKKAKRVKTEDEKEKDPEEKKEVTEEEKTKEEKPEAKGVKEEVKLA
Sequence (Q9UKL0 86-485 partner limits assumed, other chains not shown): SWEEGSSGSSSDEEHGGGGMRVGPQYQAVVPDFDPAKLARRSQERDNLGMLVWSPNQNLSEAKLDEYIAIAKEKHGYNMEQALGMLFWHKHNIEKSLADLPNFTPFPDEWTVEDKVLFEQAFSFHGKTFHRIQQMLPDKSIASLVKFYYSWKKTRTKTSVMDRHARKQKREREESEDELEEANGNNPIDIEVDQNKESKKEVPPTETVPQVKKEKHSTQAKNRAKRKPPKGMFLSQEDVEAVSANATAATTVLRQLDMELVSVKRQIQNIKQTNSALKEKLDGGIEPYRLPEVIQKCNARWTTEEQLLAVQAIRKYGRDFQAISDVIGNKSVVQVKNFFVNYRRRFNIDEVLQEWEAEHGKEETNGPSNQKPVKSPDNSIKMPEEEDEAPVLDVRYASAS
Assay: fluorescent HDAC assay (Boc-(Ac)Lys-AMC), HDAC1-CoREST complex
Assay type: biochemical
Observable: IC50 (nM)
Value expressed in nM; do not type the unit.

What is its IC50 for HDAC1-CoREST (Homo sapiens)? Entry: C/C=C1\NC(=O)[C@H]2CSSCC/C=C/[C@H](CC(=O)N[C@H](C(C)C)C(=O)N2)OC(=O)[C@H](C(C)C)NC1=O [Romidepsin, romidepsin, reference compound]
2
